- SYSTEM UNDER TEST: BRD4 (BDI_K57-E168) (Homo sapiens, UniProt O60885)
- Construct: BD1: amino acids K57-E168; made in house
- ASSAY: TR-FRET bromodomain binding assay, first bromodomain of BRD4
- CONDITION INFO: TR-FRET assay protocol G (compound 0.92 μM-15 pM); 100 nM probe
MEASURED ENDPOINT: Ki (nM)

Worked cases, Ki given:
>>> meas_value("Cn1cc2c3c(c(C(=O)O)[nH]c3c1=O)CN(c1ccc(F)cc1F)c1ccc(CS(C)(=O)=O)cc1-2")
7.04
>>> meas_value("Cn1cc2c3c(c[nH]c3c1=O)C(CCC(=O)NC1CCOCC1)N(c1ccc(F)cc1F)c1ccc(CS(C)(=O)=O)cc1-2 (stereo not shown)")
6.65
>>> meas_value("Cn1cc2c3c(c[nH]c3c1=O)CN(C(=O)CC(C)(C)C)c1ccc(CS(C)(=O)=O)cc1-2")
6.42
>>> meas_value("Cn1cc2c3c(c[nH]c3c1=O)CN(CCc1ccccc1)c1c(F)cc(F)cc1-2")
8.96
>>> meas_value("Cn1cc2c3c(c[nH]c3c1=O)CN(Cc1cccnn1)c1ccc(CS(C)(=O)=O)cc1-2")
8.8

I: Cn1cc2c3c(c[nH]c3c1=O)CN(C(=O)C1CC1)c1ccc(CS(C)(=O)=O)cc1-2
II: Cn1cc2c3c(c[nH]c3c1=O)C(Cn1ccccc1=O)N(c1ccc(F)cc1F)c1ccc(CS(C)(=O)=O)cc1-2 (single isomer, unassigned) [Example 252]
Inquiry: Between the two listed entries I and II , which has its Ki at the higher number? Reply briefly: the label of your chosen item.
Reply text: II
(II: 16.1 nM, I: 8.7 nM)

====

- Test system: breast cancer cell line MX-1
- ASSAY: MX-1 cell line proliferation assay
- Format: cell-based
- CONDITION INFO: MX-1 cells, 3-day proliferation assay, Cell Titer Glo; read-out: Cellular proliferation: EC50
MEASURED ENDPOINT: EC50 (µM)

Worked cases, EC50 given:
>>> meas_value("Cn1cc2c3c(c[nH]c3c1=O)C(CCCOc1ccccc1)N(c1ccc(F)cc1F)c1ccc(CS(C)(=O)=O)cc1-2 (centres unmarked) [Example 145]")
0.0806
>>> meas_value("CN1CCN(C(=O)c2[nH]c3c(=O)n(C)cc4c3c2CN(c2ccc(Cl)cc2)c2ccc(CS(C)(=O)=O)cc2-4)CC1")
0.115
>>> meas_value("Cn1cc2c3c(c(C#N)[nH]c3c1=O)CN(c1ccc(Cl)cc1)c1ccc(CS(C)(=O)=O)cc1-2")
0.0108

A: Cn1cc2c3c(c[nH]c3c1=O)C(CCc1ccccc1)Nc1ccc(CS(C)(=O)=O)cc1-2 (centres unmarked)
B: Cn1cc2c3c(c[nH]c3c1=O)C(C1CCOCC1)N(c1ccc(F)cc1F)c1ccc(CS(C)(=O)=O)cc1-2 (centres unmarked)
C: Cn1cc2c3c(c[nH]c3c1=O)C(c1ccc(C#N)cc1)N(c1ccc(F)cc1F)c1ccc(CS(C)(=O)=O)cc1-2 (racemic)
Inquiry: Rank by EC50 (largest to smallest). Would you mind listing the labels in the order asked for?
Reply text: A, C, B

P: Cn1cc2c3c(c[nH]c3c1=O)CN(c1ccc(F)cc1)c1ncc(N)cc1-2
Q: Cn1cc2c3c(c[nH]c3c1=O)CN(C(=O)Oc1ccc3ccccc3c1)c1ccc(CS(C)(=O)=O)cc1-2
R: CCOC(=O)C1c2c[nH]c3c(=O)n(C)cc(c23)-c2cc(CS(C)(=O)=O)ccc2N1c1ccc(F)cc1 (centres unmarked) [Example 84]
Inquiry: // ascending sort on recorded EC50 Would you mind listing the labels in the order asked for?
Reply text: P, R, Q

I: COC(=O)NC1CCC(N2Cc3c[nH]c4c(=O)n(C)cc(c34)-c3cc(CS(C)(=O)=O)ccc32)CC1 (centres unmarked) [Example 226]
II: Cn1cc2c3c(c[nH]c3c1=O)CN(c1cccnc1)c1ccc(CS(C)(=O)=O)cc1-2
Inquiry: Between the two listed entries I and II , which has its EC50 at the higher number? Reply briefly: the label of your chosen item.
Reply text: I
(I: 0.00782 µM, II: 0.00213 µM)

I: CN(C)C(=O)CCC1c2c[nH]c3c(=O)n(C)cc(c23)-c2cc(CS(C)(=O)=O)ccc2N1c1ccc(F)cc1F (centres unmarked)
II: CCCN1Cc2c[nH]c3c(=O)n(C)cc(c23)-c2cc(F)cc(F)c21
III: Cn1cc2c3c(c[nH]c3c1=O)CN(C(=O)Oc1ccccc1)c1ccc(CS(C)(=O)=O)cc1-2
Inquiry: // ascending sort on recorded EC50 Would you mind listing the labels in the order asked for?
Reply text: III, II, I
